Below, each entry is listed with its recorded growth inhibition.
- test: NCI Yeast Anticancer Drug Screen. Data for the mec2-1 strain (AID 157)
- test settings: S. cerevisiae mec2-1 strain, at 5.0 µM (retest, dose inferred, filed as 0.5), active compounds read high
This is part of a sample that, as a whole, favours compounds with a hit. Of some 79,000 tested, about 15% had one in any assay. Activity calls are given as the source filed them. Rule as the data show it: active = growth inhibition above about 70%; inactive = the rest.

CC(C)OC(=O)c1ccc(CCc2cc(O)c(Br)cc2O)cc1 :: 42% (inactive)
COc1ccc(/C=C/C(=O)c2ccccc2)cc1OC :: -16% (inactive)
CC(=O)Nc1ccc2c(c1)Cc1cc(N=C3C=CC(=O)O3)ccc1-2 :: 87% (active)
CCCCC/C(=C(\C#N)C(=O)OCC)c1ccccc1 :: -5% (inactive)

Measured growth inhibition of CC(NCCN(C)C)C1CCC2C3CCc4cc(O)ccc4C3CCC12C (stereo not drawn) : 2% (inactive)

Measured growth inhibition of Cn1c(=O)c2c(nc(N)n2C2OC(CO)C(O)C2O)n(C)c1=O (stereo not drawn) : -2% (inactive)

Measured growth inhibition of O=[N+]([O-])c1cccc2nc3ccccc3c(NCCC[N+]3([O-])CCCCC3)c12 : 39% (inactive)

Measured growth inhibition of CCCCN(CCCC)CCC(O)c1cc2c(Cl)cc(Cl)cc2c2cc(C(F)(F)F)ccc12 (stereo not drawn) : 53% (inactive)

Measured growth inhibition of CCOc1ccccc1N=Cc1c2ccccc2cc2ccccc12 : 7% (inactive)

Measured growth inhibition of Oc1ccc(SCc2ccc(NCc3ccccc3)cc2)cc1 : 12% (inactive)

Measured growth inhibition of Cc1c(C)c(C)c(CSC(=N)N)c(C)c1C : 54% (inactive)
